Reference for the values: ChEMBL document CHEMBL5058577

Answer each item with its documented Population Normal (%).
Tested on: HEK-293T
assay.details: Multiplex assay against HEK293T
Format: toxicity, cell-based
experimental.setup: human, 24 h, 1 µM, compound concentration 1 uM, replicate 1
Answers are plain numbers, in %.

Examples with their reported Population Normal (%) follow.
For this compound ( C=CCN1C[C@H](C(=O)N(CCCN(C)C)C(=O)NCC)C[C@@H]2c3cccc4[nH]cc(c34)C[C@H]21 ), measured Population Normal (%) is 95

// Cl.Cl.OCCOCCN1CCN(C(c2ccccc2)c2ccc(Cl)cc2)CC1 (centres undefined) [HYDROXYZINE HYDROCHLORIDE] : Population Normal (%) value = 97

Per the records, this compound ( COC(c1ccccc1)(c1ccccc1)[C@H](Oc1nc(C)cc(C)n1)C(=O)O ) has Population Normal (%) equal to 95

Others:
Item: Cc1cc(-c2ccc3c(c2)CC[C@H]3N2CC3(CCN(C(=O)Cc4cn5cc(C)sc5n4)CC3)C2)ncn1 | Population Normal (%): 97

----------
Test system: U2OS
assay.details: Multiplex assay against U2OS
Type: toxicity, cell-based
experimental.setup: human, 24 h, 1 µM, compound concentration 1 uM, replicate 1
Non-standard residues stand in square brackets, D forms with d. Residues, ends and D or L forms follow the SMILES beside them.
I'd appreciate it if you could supply Population Fragmented Nuclei (%) values for the items below.
One number for each entry, in %.

Completed entries (count: 3):
# Population Fragmented Nuclei (%) (molecule: CN(C)C(=O)Cn1cc(-c2ccc(-c3nnc4ccccn34)cc2)cn1 ) is 22

Population Fragmented Nuclei (%) for CCn1c(-c2nc3cc(C(=O)N4CCCC(N)C4)ccc3n2C)cc2ccccc21.Cl (stereo not drawn) is 22

According to the records, this molecule CN1CCN(c2ccc(Nc3c4ccccc4nc4ccccc34)cc2)CC1.Cl.Cl.O displays Population Fragmented Nuclei (%) of 28

Quick batch: Population Fragmented Nuclei (%) for everything below.
1. COCCCN1CCC(NC(=O)c2cc(Cl)c(N)c3c2OCC3)CC1 [PRUCALOPRIDE]
2. Cc1cc(NC(=O)NCCN2CCC(O)(Cc3ccccc3)CC2)c2ccccc2n1
3. C=CCN1C[C@H](C(=O)N(CCCN(C)C)C(=O)NCC)C[C@@H]2c3cccc4[nH]cc(c34)C[C@H]21

**A:**
1. 26
2. 26
3. 15

Would you mind giving Population Fragmented Nuclei (%) for every molecule in the list below?
1. Cc1c(Cc2ccc3ccccc3n2)c2cc(F)ccc2n1CC(=O)O
2. CC(C)C[C@@H]1NC(=O)[C@@H](C(C)C)NC(=O)[C@@H]2CCCN2C(=O)[C@@H](CC(=O)O)NC(=O)[C@@H](Cc2c[nH]c3ccccc23)NC1=O [BQ-123] (cyclo(L[dW][dD]P[dV]))

**A:**
1. 18
2. 16

----------
Tested on: HEK-293T
assay.details: Multiplex assay against HEK293T
Type: toxicity, cell-based
experimental.setup: human, 12 h, 10 µM, compound concentration 10 uM, replicate 2
parameter: Total Cell Count
Give bare numbers.

Illustrative cases are given below, each with its answer.
Total Cell Count reading for Cc1cc(NC(=O)NCCN2CCC(O)(Cc3ccccc3)CC2)c2ccccc2n1 : 346

The measured Total Cell Count associated with COC(c1ccccc1)(c1ccccc1)[C@H](Oc1nc(C)cc(C)n1)C(=O)O reads 262

Given item N[C@](CC1c2ccccc2Oc2ccccc21)(C(=O)O)[C@H]1C[C@@H]1C(=O)O , the value recorded as its Total Cell Count is 382

Value of measured Total Cell Count for the entry COc1cc(OC2CCN(C(C)=O)CC2)ccc1C(=O)N1CCC(N2C(=O)OCc3ccccc32)CC1 : 316

// next entry
Noted for Cc1nn(C)c2nc(NNC(=O)Nc3cc(Cl)nc(Cl)c3)cc(C(C)C)c12 : its Total Cell Count reads 396

----------
System: U2OS
assay.details: Multiplex assay against U2OS
Format: toxicity, cell-based
experimental.setup: human, 48 h, 10 µM, compound concentration 10 uM, replicate 1
parameter: Population Mitotic Cells (%)
Give bare numbers, in %.

Here is how some compounds turned out for Population Mitotic Cells (%).
CCCCCCNC(=O)Nc1ccc(S(=O)(=O)Nc2ccc(CCNC[C@H](O)COc3ccc(O)cc3)cc2)cc1 has a reported Population Mitotic Cells (%) of 20

The compound COC(c1ccccc1)(c1ccccc1)[C@H](Oc1nc(C)cc(C)n1)C(=O)O showed Population Mitotic Cells (%) equal to 12

The compound listed as O=C(NCCNCC(O)COc1ccc(O)cc1)N1CCOCC1.O=C(NCCNCC(O)COc1ccc(O)cc1)N1CCOCC1.O=C(O)/C=C/C(=O)O (centres undefined) [XAMOTEROL FUMARATE] has a reported Population Mitotic Cells (%) of 10

Here is the next item to consider.
Item: Cc1ccc(OCC(O)C(C)NC(C)C)c2c1CCC2.Cl (centres undefined) | Population Mitotic Cells (%): 17

----------
System: Fibroblast
assay.details: Multiplex assay against human fibroblast
Assay type: toxicity, cell-based
experimental.setup: 24 h, 1 µM, compound concentration 1 uM, replicate 2
Exercise: for every item that follows, state its recorded Population Healthy Nuclei (%).
Answers are plain numbers, in %.

The following compounds have reported results that may help.
# Population Healthy Nuclei (%) of CN1C[C@H](C(=O)N[C@]2(C)O[C@@]3(O)[C@@H]4CCCN4C(=O)[C@H](Cc4ccccc4)N3C2=O)C[C@@H]2c3cccc4[nH]cc(c34)C[C@H]21.CS(=O)(=O)O [DIHYDROERGOTAMINE MESYLATE] = 56

Population Healthy Nuclei (%) recorded for this compound, OCCCNc1cc(-c2ccnc(Nc3cccc(Cl)c3)n2)ccn1 , is 48

The recorded Population Healthy Nuclei (%) for entry C=CCN1C[C@H](C(=O)N(CCCN(C)C)C(=O)NCC)C[C@@H]2c3cccc4[nH]cc(c34)C[C@H]21 equals 46

Lookup result for CC(F)(F)CN1CCOc2c(nn(-c3ccccc3Cl)c2-c2ccc(Cl)cc2)C1=O ; measured Population Healthy Nuclei (%): 52

Record COc1cc2nc(N3CCN(C(=O)COc4c(OC)cccc4C(C)C)CC3)nc(N)c2cc1OC.Cl.Cl , field Population Healthy Nuclei (%): 42

Value of measured Population Healthy Nuclei (%) for the entry CCn1c(-c2nc3cc(C(=O)N4CCCC(N)C4)ccc3n2C)cc2ccccc21.Cl (centres undefined) : 54

Record summary for COCCCN1CCC(NC(=O)c2cc(Cl)c(N)c3c2OCC3)CC1 [PRUCALOPRIDE] : reported Population Healthy Nuclei (%) = 49

What the record says about O=C(Nc1cc(-c2ccccc2)nn1-c1ccccc1F)c1ccc([N+](=O)[O-])cc1 : Population Healthy Nuclei (%) is 53

Required: Population Healthy Nuclei (%), one value per compound below.
1. COc1ccc2[nH]c(I)c(CCNC(C)=O)c2c1
2. Nc1nc(CC(=O)Nc2ccc(CCNC[C@H](O)c3ccccc3)cc2)cs1

**A:**
[57, 57]

----------
Tested on: HEK-293T
assay.details: Multiplex assay against HEK293T
Format: toxicity, cell-based
experimental.setup: human, 12 h, 10 µM, compound concentration 10 uM, replicate 1
Non-standard residues stand in square brackets, D forms with d. Residues, ends and D or L forms follow the SMILES beside them.
In plain terms, low Total Cell Count, meaning strictly below 300, gives T, and everything else gives F.

Worked cases, answers included:
**Q:** Below 300 on Total Cell Count? Entry CC(C)(O)C(=O)N1CCN(c2ccc(C(F)(F)F)c(C3=C(c4c[nH]c5ccccc45)C(=O)NC3=O)c2)CC1
**A:** F

**Q:** Determine if CC(C)C[C@@H]1NC(=O)[C@@H](C(C)C)NC(=O)[C@@H]2CCCN2C(=O)[C@@H](CC(=O)O)NC(=O)[C@@H](Cc2c[nH]c3ccccc23)NC1=O [BQ-123] (cyclo(L[dW][dD]P[dV])) shows Total Cell Count strictly lower than 300.
**A:** F

**Q:** Please determine if Cc1cc(=O)n(C)c2cc(N3C(=O)CC[C@H](NS(=O)(=O)CC(C)C)[C@H]3c3ccc(Cl)cc3)ccc12 is below 300 in terms of Total Cell Count.
**A:** F

**Q:** Check if Total Cell Count falls below 300 for COCCCN1CCC(NC(=O)c2cc(Cl)c(N)c3c2OCC3)CC1 [PRUCALOPRIDE] .
**A:** F

**Q:** # TODO verify Total Cell Count < 300 strictly for this compound: COc1cc2nc(N3CCN(C(=O)COc4c(OC)cccc4C(C)C)CC3)nc(N)c2cc1OC.Cl.Cl
**A:** F

**Q:** Does the reported Total Cell Count of COCCn1c(C)c(C)s/c1=N\C(=O)C1C(C)(C)C1(C)C stay below 300?
**A:** T

**Q:** Input COc1ccc2[nH]c(I)c(CCNC(C)=O)c2c1 ; condition: Total Cell Count strictly below 300. Does it hold?
**A:** F

**Q:** Please let me know if Cc1c(Cc2ccc3ccccc3n2)c2cc(F)ccc2n1CC(=O)O shows Total Cell Count below 300.
**A:** F

**Q:** Would you kindly verify if Total Cell Count of Cc1ccc(OCC(O)C(C)NC(C)C)c2c1CCC2.Cl (stereo not drawn) is strictly less than 300?
**A:** T

**Q:** Field: below-cutoff. Rule: recorded Total Cell Count strictly less than 300. Subject: CN1CCC(C(=O)c2cccc(NC(=O)c3c(F)cc(F)cc3F)n2)CC1
**A:** F

New cases:
**Q:** Just wondering, is Total Cell Count of O=C(O)CCC/C=C\CC1C(O)CC(O)C1/C=C/C(O)COc1cccc(Cl)c1 (stereo not drawn) below 300?
**A:** F

**Q:** Is Total Cell Count strictly under 300 for the entry OCCCNc1cc(-c2ccnc(Nc3cccc(Cl)c3)n2)ccn1 ?
**A:** T

**Q:** Dear colleague, could you confirm whether Total Cell Count of C[C@H](NC(=O)CNC(=O)c1cccc(Cl)c1)c1ccccc1 falls below 300? Thanks.
**A:** F

**Q:** Strictly below 300 in Total Cell Count? Nc1nc(CC(=O)Nc2ccc(CCNC[C@H](O)c3ccccc3)cc2)cs1
**A:** F

**Q:** Item Cn1cc(C(=O)OCC2CCN(CCNS(C)(=O)=O)CC2)c2ccccc21 : Total Cell Count beneath 300, strictly?
**A:** F
